# assayed_system: Mitogen-activated protein kinase 1 (Homo sapiens, UniProt P28482)
# Sequence (P28482 whole entry): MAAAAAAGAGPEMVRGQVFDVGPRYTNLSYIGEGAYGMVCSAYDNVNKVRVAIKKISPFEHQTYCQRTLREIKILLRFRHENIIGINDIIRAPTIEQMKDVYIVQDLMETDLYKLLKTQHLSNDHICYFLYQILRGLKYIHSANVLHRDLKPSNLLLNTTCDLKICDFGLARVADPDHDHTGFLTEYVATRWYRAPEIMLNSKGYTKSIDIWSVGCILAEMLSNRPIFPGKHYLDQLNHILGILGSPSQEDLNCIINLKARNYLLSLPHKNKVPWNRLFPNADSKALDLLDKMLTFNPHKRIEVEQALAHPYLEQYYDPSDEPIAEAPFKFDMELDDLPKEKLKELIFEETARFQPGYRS
# test_details: Dissociation constant for ERK2 kinase
readout_label: pKd
The scale used: pKd is minus the common logarithm of the concentration in molar units.

Entry "CCOc1ccc(/C=C2\SC(=O)N(CCN)C2=O)cc1" ; assay system Mitogen-activated protein kinase 1 (Homo sapiens, UniProt P28482); pKd recorded at 5.30

Okay, now this compound:
Entry "O=C(CSc1nc2ccccc2o1)Nc1ccc(-n2cnnn2)cc1" ; assay system Mitogen-activated protein kinase 1 (Homo sapiens, UniProt P28482); pKd recorded at 5.30
